Recorded measurements of concentration at 2 h, one per entry
# PROCEDURE SUMMARY: Drug concentration in mouse plasma at 10 mg/kg, sc measured after 2 hrs by LC-MS/MS analysis
# Assay type: ADME, organism-based
Numbered stars: 1 amine (or outer) side, 2 acyl side, 3 side chain; on linkers, the order of the positions; unused ones are H or OH. Square brackets hold non-standard residues; d marks the D form. Peptide text beside a SMILES is read from it. Nva(5-(4-Bn-piperidin-1-yl)) = N[C@@H](CCCN1CCC(Cc2ccccc2)CC1)C(=O)O; X1 = O=C1[C@@H](N[*:1])Cc2ccccc2CN1CCC(=O)[*:2]; Dmt = Cc1cc(O)cc(C)c1C[C@H](N)C(=O)O

Examples with answers:
# MOLECULE, concentration at 2 h
data = [
    ("Cc1cc(O)cc(C)c1C[C@H](N)C(=O)N1CCC[C@@H]1C(=O)N[C@H]1Cc2ccccc2CN(CCC(=O)N[C@@H](CCCN2CCC(Cc3ccccc3)CC2)C(=O)N[C@@H](Cc2ccccc2)C(N)=O)C1=O (H-[Dmt][dP][X1][Nva(5-(4-Bn-piperidin-1-yl))]F-NH2)", "10.7 nM"),
    ("Cc1cc(O)cc(C)c1C[C@H](N)C(=O)N[C@H](CCCNC(=N)N)C(=O)N[C@H]1Cc2ccccc2CN(CCC(=O)N[C@@H](CCCN2CCC(Cc3ccccc3)CC2)C(=O)N[C@@H](Cc2ccccc2)C(N)=O)C1=O", "937 nM"),
    ("Cc1cc(O)cc(C)c1C[C@H](NC(=N)N)C(=O)N[C@H](CCCNC(=N)N)C(=O)N[C@H]1Cc2ccccc2CN(CCC(=O)N[C@@H](CCCN2CCC(Cc3ccccc3)CC2)C(=O)N[C@@H](Cc2ccccc2)C(N)=O)C1=O", "593 nM"),
    ("Cc1cc(O)cc(C)c1C[C@H](N)C(=O)N(C)[C@H](C)C(=O)N[C@H]1Cc2c(ccc3ccccc23)CN(CCC(=O)N[C@@H](CCCN2CCC(Cc3ccccc3)CC2)C(=O)N[C@@H](Cc2ccccc2)C(N)=O)C1=O", "837 nM"),
]

From here, focus on the item given below.
State the recorded concentration at 2 h for this entry: Cc1cc(O)cc(C)c1C[C@H](N)C(=O)N(C)[C@H](C)C(=O)N[C@H]1Cc2c(ccc3ccccc23)CN(CC(=O)N[C@@H](CCCN2CCC(Cc3ccccc3)CC2)C(=O)N[C@@H](Cc2ccccc2)C(N)=O)C1=O 474 nM

====

# SYSTEM NAME: Neuropeptide FF receptor 2 (Homo sapiens, UniProt Q9Y5X5)
# Sequence (Q9Y5X5 whole entry): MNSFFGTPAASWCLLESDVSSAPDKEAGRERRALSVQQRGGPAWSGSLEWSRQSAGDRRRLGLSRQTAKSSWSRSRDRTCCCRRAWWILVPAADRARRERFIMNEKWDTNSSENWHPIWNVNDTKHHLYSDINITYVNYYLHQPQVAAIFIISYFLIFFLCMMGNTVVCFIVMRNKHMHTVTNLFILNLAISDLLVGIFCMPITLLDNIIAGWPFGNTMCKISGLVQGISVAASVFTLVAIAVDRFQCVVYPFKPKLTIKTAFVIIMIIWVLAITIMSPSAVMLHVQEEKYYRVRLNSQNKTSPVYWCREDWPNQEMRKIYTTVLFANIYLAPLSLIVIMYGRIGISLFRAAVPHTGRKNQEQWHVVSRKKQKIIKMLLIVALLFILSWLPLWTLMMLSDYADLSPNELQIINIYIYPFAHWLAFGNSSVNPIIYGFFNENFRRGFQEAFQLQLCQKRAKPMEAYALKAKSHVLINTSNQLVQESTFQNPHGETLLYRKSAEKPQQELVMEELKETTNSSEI
# PROCEDURE SUMMARY: Antagonist potency at human NPFFR2 expressed in CHO cell membrane assessed as inhibition of NPVF induced cAMP response incubated for 1 hr by Topcount counting method
# Assay type: functional, cell membranes
# MEASUREMENT CONDITIONS: read-out: pA2 (converted)
Numbered stars: 1 amine (or outer) side, 2 acyl side, 3 side chain; on linkers, the order of the positions; unused ones are H or OH. Square brackets hold non-standard residues; d marks the D form. Peptide text beside a SMILES is read from it. Nva(5-(4-Bn-piperidin-1-yl)) = N[C@@H](CCCN1CCC(Cc2ccccc2)CC1)C(=O)O; X1 = O=C1[C@@H](N[*:1])Cc2ccccc2CN1CCC(=O)[*:2]; Dmt = Cc1cc(O)cc(C)c1C[C@H](N)C(=O)O
QUANTITY NAME: Kb (nM)
Write the value in nM as a bare number.

Worked set:
# MOLECULE, READING
measured = [
    ("Cc1cc(O)cc(C)c1C[C@H](N)C(=O)N(C)[C@H](C)C(=O)N[C@H]1Cc2c(ccc3ccccc23)CN(CC(=O)N[C@@H](CCCN2CCC(Cc3ccccc3)CC2)C(=O)N[C@@H](Cc2ccccc2)C(N)=O)C1=O", 102),
    ("Cc1cc(O)cc(C)c1C[C@H](N)C(=O)N(C)[C@H](C)C(=O)N[C@H]1Cc2c(ccc3ccccc23)CN(CCC(=O)N[C@@H](CCCN2CCC(Cc3ccccc3)CC2)C(=O)N[C@@H](Cc2ccccc2)C(N)=O)C1=O", 45.7),
    ("Cc1cc(O)cc(C)c1C[C@H](NC(=N)N)C(=O)N[C@H](CCCNC(=N)N)C(=O)N[C@H]1Cc2ccccc2CN(CCC(=O)N[C@@H](CCCN2CCC(Cc3ccccc3)CC2)C(=O)N[C@@H](Cc2ccccc2)C(N)=O)C1=O", 110),
]

What measured Kb goes with Cc1cc(O)cc(C)c1C[C@H](N)C(=O)N1CCC[C@@H]1C(=O)N[C@H]1Cc2ccccc2CN(CCC(=O)N[C@@H](CCCN2CCC(Cc3ccccc3)CC2)C(=O)N[C@@H](Cc2ccccc2)C(N)=O)C1=O (H-[Dmt][dP][X1][Nva(5-(4-Bn-piperidin-1-yl))]F-NH2) ? 380

All values here come from ChEMBL document CHEMBL5506024.
